- System: N-terminal Xaa-Pro-Lys N-methyltransferase 1 (Homo sapiens) (UniProt Q9BV86)
- Sequence (Q9BV86 whole entry, looked up): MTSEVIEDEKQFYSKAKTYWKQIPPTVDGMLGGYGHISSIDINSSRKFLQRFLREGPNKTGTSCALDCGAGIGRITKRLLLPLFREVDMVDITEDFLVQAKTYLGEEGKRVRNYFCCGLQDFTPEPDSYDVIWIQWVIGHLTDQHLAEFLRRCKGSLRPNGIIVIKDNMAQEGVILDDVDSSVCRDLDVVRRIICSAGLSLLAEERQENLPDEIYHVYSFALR
- Assay: qHTS Assay for Inhibitors of N-terminal methyltransferase 1 (NTMT1): LOPAC validation of the NTMT1 SAHH-coupled ThioGlo3 Assay (AID 1347143);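 further: SAH from peptide methylation measured as thiol fluorescence via SAHH coupling and ThioGlo3; nearly all actives have a fitted effect of over 70% in size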
- Experimental Conditions: recombinant NTMT1, SAHH-coupled ThioGlo3 fluorescence; series mostly up to 114 µM
Results filed as inconclusive are left out. Activity calls are given as the source filed them. The call rests on the fitted dose curve; in most records, active means well fitted inhibition curve with a large enough effect; inconclusive means small, poorly fitted or top-dose-only effect; inactive means no such curve, though single readings can be large or run the other way.
Allowed answers: label 1 = active, label 0 = inactive

Here's what some known entries look like.
Compound: CCN(CC)C(=S)SSC(=S)N(CC)CC
Qualitative Label: label 1
--
Compound: NNc1nncc2ccccc12
Qualitative Label: label 1
--
Compound: Clc1ccc2c(N3CCN(CCCN4CCN(c5ccnc6cc(Cl)ccc56)CC4)CC3)ccnc2c1
Qualitative Label: label 1
--
Compound: COc1ccccc1N1CCN(CCN(C(=O)C2CCCCC2)c2ccccn2)CC1
Qualitative Label: label 0
--
Compound: CC1(C)NC(=O)N(c2ccc([N+](=O)[O-])c(C(F)(F)F)c2)C1=O
Qualitative Label: label 0
--
Compound: CC(=O)NC[C@H]1CN(c2ccc(N3CCOCC3)c(F)c2)C(=O)O1
Qualitative Label: label 0
--
Compound: CCOC(=O)C1=C(O)C(=O)N(Cc2ccccc2)C1
Qualitative Label: label 0
--
Compound: CC(C)c1ccc2c(c1)c(SC(C)(C)C)c(CC(C)(C)C(=O)O)n2Cc1ccc(Cl)cc1
Qualitative Label: label 0
--
Compound: Oc1ccc(-c2nc(-c3ccc(F)cc3)c(-c3ccncc3)[nH]2)cc1
Qualitative Label: label 1
--
Compound: Cc1cc(O)c2c(c1)C(=O)c1cc(O)cc(O)c1C2=O
Qualitative Label: label 1

Continue with the compound presented below.
Ask | Hey, what did the test say about Nc1nc(OCc2ccccc2)c2[nH]cnc2n1 ?
Reply | label 0

* * *

- Test system: WaGa
- Assay: qHTS assay to identify novel small-molecules to repurpose for Merkel cell carcinoma treatment (AID 1296009); further: nearly all actives have a fitted effect of over 60% in size
- Experimental Conditions: MCC and control cell lines, CellTiter-Glo viability, 72 h; series mostly up to 46 µM
Records with an inconclusive call do not appear. The source made the active and inactive calls. Calls come from the whole dose curve; as a rule, active = well fitted inhibition curve with a large enough effect; inconclusive = small, poorly fitted or top-dose-only effect; inactive = flat fitted curve, though single readings scatter.
Reply using exactly one outcome from T for active, F for inactive

Consider the following illustrative entries.
Compound: Nc1ccc(S(N)(=O)=O)cc1
Qualitative Label: F
--
Compound: CC(=O)Nc1ccc(O)cc1
Qualitative Label: F
--
Compound: Cc1nc(Nc2ncc(C(=O)Nc3c(C)cccc3Cl)s2)cc(N2CCN(CCO)CC2)n1
Qualitative Label: F
--
Compound: CC(C)[N+]1(C)[C@@H]2CC[C@H]1CC(OC(=O)C(CO)c1ccccc1)C2 (some centres undefined)
Qualitative Label: T
--
Compound: CCC1=C(C)CN(C(=O)NCCc2ccc(S(=O)(=O)NC(=O)NC3CCC(C)CC3)cc2)C1=O (centres undefined)
Qualitative Label: F

Ask | Which outcome did this test record for the compound Cc1cc(=O)oc2cc(O)ccc12 ?
Reply | F

Ask | Per the assay record, what outcome was assigned to c1ccc2[nH]c(-c3cscn3)nc2c1 ?
Reply | F

* * *

- Assay: Quantitative High-Throughput drug screen in 47 multiple myeloma cell lines against the NCATS MIPE library collection: KMS28BM_JCRB cell viability assay (AID 1919874); further: nearly all actives have a fitted effect of over 35% in size; further: potency means the concentration at half of the fitted maximal effect
- Experimental Conditions: CellTiter-Glo ATP, 48 h; series mostly up to 45.8 µM
Records with an inconclusive call do not appear. Calls of active or inactive are those of the source. The call rests on the fitted dose curve; in most records, active means well fitted cell-killing curve with a large enough effect; inconclusive means small, poorly fitted or top-dose-only effect, or effect the other way; inactive means no such curve, though single readings can be large or run the other way.
Measured Parameter: Potency

Worked cases, Potency given:
Compound: CCC1=C(C)CN(C(=O)NCCc2ccc(S(=O)(=O)NC(=O)NC3CCC(C)CC3)cc2)C1=O (stereo unspecified)
Potency: inactive
//
Compound: Cc1ccc(Nc2nccc(N(C)c3ccc4c(C)n(C)nc4c3)n2)cc1S(N)(=O)=O
Potency: inactive
//
Compound: CCN(CC)C(=S)SSC(=S)N(CC)CC
Potency: 1.9 nM (active)
//
Compound: Nc1ncn([C@H]2C[C@H](O)[C@@H](CO)O2)c(=O)n1
Potency: inactive
//
Compound: CCN(CC)CCOc1ccc(Nc2ncc3cc(-c4c(Cl)cccc4Cl)c(=O)n(C)c3n2)cc1
Potency: 526 nM (active)
//
Compound: C[C@H](Cn1cnc2c(N)ncnc21)OCP(=O)(O)O
Potency: inactive
//
Compound: Cc1cc(O)c2c(c1)C(=O)c1cc(O)cc(O)c1C2=O
Potency: inactive
//
Compound: S=c1nc[nH]c2nc[nH]c12
Potency: 1180 nM (active)

Ask | Fill in reported Potency for this entry: Cc1cc(=O)oc2cc(O)ccc12
Reply | inactive

Ask | Give the value of Potency reported for the following: Cc1ccc(C)c(OCCCC(C)(C)C(=O)O)c1
Reply | inactive

Ask | Input O=C(OC1C[C@H]2CC[C@@H](C1)[N+]21CCCC1)C(O)(c1ccccc1)c1ccccc1 (stereo partly specified) , output reported Potency.
Reply | inactive
